Experiment: physchem
Settings: pH 7.4, aqueous buffer, kinetic from dmso stock, Solubility (μM)
Procedure: • Test concentration: 100 μM (1% of DMSO) • Test systems: PBS (pH 7.4) • Incubation condition: shaken (1000 rpm) for 1 h at room temperature • Sample size: Duplicates (n=2) • Bioanalytical method: LC-MS/MS
Property measured: solubility (µM)

>>> data_value("CC(=O)OC1=C(C)C2=CC=C3[C@@](C)(CC[C@@]4(C)[C@@H]5C[C@](C)(C(=O)O)CC[C@]5(C)CC[C@]34C)C2=CC1=O [ERX1007]")
48.8

====

assay: Compound solubility in PBS (pH 7.4), LC-MS/MS; conditions: PBS (pH 7.4), pH 7.4, aqueous buffer, kinetic from dmso stock, Solubility (μM) Mean, Table 6-B, test concentration 100 μM (1% of DMSO), shaken (1000 rpm) 1 h at room temperature, n = 2
# log10 of solubility at 1 h per record follows
Property measured: log10 of solubility at 1 h (log10 of the value in µM)

>>> data_value("COC1=C(C)C2=CC=C3[C@@](C)(CC[C@@]4(C)[C@@H]5C[C@](C)(C(N)=O)CC[C@]5(C)CC[C@]34C)C2=CC1=O")
0.93
>>> data_value("CC1=C(O)C(=O)C=C2C1=CC=C1[C@@]2(C)CC[C@@]2(C)[C@@H]3C[C@](C)(N(C)C)CC[C@]3(C)CC[C@]12C")
1.69
>>> data_value("CC1=C(O)C(=O)C=C2C1=CC=C1[C@@]2(C)CC[C@@]2(C)[C@@H]3C[C@](C)(N)CC[C@]3(C)CC[C@]12C")
1.22
>>> data_value("CC1=C(O)C(=O)C=C2C1=CC=C1[C@@]2(C)CC[C@@]2(C)[C@@H]3C[C@](C)(CN4CCOCC4)CC[C@]3(C)CC[C@]12C")
-0.33
>>> data_value("CCNC(=O)OC1=C(C)C2=CC=C3[C@@](C)(CC[C@@]4(C)[C@@H]5C[C@](C)(C#N)CC[C@]5(C)CC[C@]34C)C2=CC1=O")
0.05
>>> data_value("CC(=O)Oc1cc2c(c(C)c1OC(C)=O)C(SC(C)C)C=C1[C@@]2(C)CC[C@@]2(C)[C@@H]3C[C@](C)(C(N)=O)CC[C@]3(C)CC[C@]12C (stereo partly shown)")
-0.20
>>> data_value("CC(=O)N1CCN(c2ccc(OCC3COC(Cn4ccnc4)(c4ccc(Cl)cc4Cl)O3)cc2)CC1 (stereo not shown)")
1.55
>>> data_value("C=CCOC1=C(C)C2=CC=C3[C@@](C)(CC[C@@]4(C)[C@@H]5C[C@](C)(C(N)=O)CC[C@]5(C)CC[C@]34C)C2=CC1=O")
0.02
>>> data_value("CC(=O)Oc1cc2c(c(C)c1OC(C)=O)C(SC(C)C)C=C1[C@@]2(C)CC[C@@]2(C)[C@@H]3C[C@](C)(CN(C)C)CC[C@]3(C)CC[C@]12C (stereo partly shown)")
-0.25
>>> data_value("CCOC1=C(C)C2=CC=C3[C@@](C)(CC[C@@]4(C)[C@@H]5C[C@](C)(C(N)=O)CC[C@]5(C)CC[C@]34C)C2=CC1=O")
1.06
>>> data_value("CC(=O)Oc1cc2c(c(C)c1OC(C)=O)C(SC(C)=O)C=C1[C@@]2(C)CC[C@@]2(C)[C@@H]3C[C@](C)(C(=O)O)CC[C@]3(C)CC[C@]12C (stereo partly shown)")
0.81
>>> data_value("CC1=C(O)C(=O)C=C2C1=CC=C1[C@@]2(C)CC[C@@]2(C)[C@@H]3C[C@](C)(NS(C)(=O)=O)CC[C@]3(C)CC[C@]12C")
0.61
>>> data_value("CC1=C(O)C(=O)C=C2C1=CC=C1[C@@]2(C)CC[C@@]2(C)[C@@H]3C[C@](C)(C#N)CC[C@]3(C)CC[C@]12C")
-0.10
>>> data_value("CC1=C(O)C(=O)C=C2C1=CC=C1[C@@]2(C)CC[C@@]2(C)[C@@H]3C[C@](C)(CN(C)C)CC[C@]3(C)CC[C@]12C")
0.05
>>> data_value("CC1=C(O)C(=O)C=C2C1=CC=C1[C@@]2(C)CC[C@@]2(C)[C@@H]3C[C@](C)(CN4CCN(C)CC4)CC[C@]3(C)CC[C@]12C")
-0.04
>>> data_value("CCCOC1=C(C)C2=CC=C3[C@@](C)(CC[C@@]4(C)[C@@H]5C[C@](C)(C(N)=O)CC[C@]5(C)CC[C@]34C)C2=CC1=O")
0.19
